Below are Ki values measured for Human EP4 (Homo sapiens, UniProt P35408).
Hi! Could you send only the number? It should be in nM, unit omitted.

// map C[C@H](NC(=O)c1cc(Cl)ccc1Oc1ccc(F)cc1)c1ccc(C(=O)O)cc1 [CJ‐042,794, reference compound] to recorded Ki (system: Human EP4 (Homo sapiens, UniProt P35408))
Sequence (P35408 whole entry): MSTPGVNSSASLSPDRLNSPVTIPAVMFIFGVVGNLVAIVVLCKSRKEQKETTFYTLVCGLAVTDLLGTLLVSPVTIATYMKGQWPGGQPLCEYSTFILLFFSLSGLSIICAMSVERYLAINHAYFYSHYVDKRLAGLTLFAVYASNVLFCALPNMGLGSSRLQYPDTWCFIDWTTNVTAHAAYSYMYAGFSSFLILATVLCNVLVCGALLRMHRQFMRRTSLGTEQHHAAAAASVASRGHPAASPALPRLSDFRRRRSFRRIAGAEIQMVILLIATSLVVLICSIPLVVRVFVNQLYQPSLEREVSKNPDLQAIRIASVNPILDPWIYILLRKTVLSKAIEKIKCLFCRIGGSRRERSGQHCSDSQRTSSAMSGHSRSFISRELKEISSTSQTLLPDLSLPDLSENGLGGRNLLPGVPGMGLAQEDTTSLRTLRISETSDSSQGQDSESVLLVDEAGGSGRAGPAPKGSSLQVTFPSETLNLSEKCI
12.6

CCc1nc2c(C)nc(C)cc2n1-c1ccc(CCNC(=O)NS(=O)(=O)c2ccc(C)cc2)cc1 [CJ‐023,423, reference compound] , same question.
449
